- Test system: ACHN renal
- measurement notes: NCI tumour cell line growth inhibition, 48 h
Where a SMILES comes first, the peptide text is derived from it. Bridges are numbered along the chain shown (N, C = ends).
Assign class by TGI: not lower than 20 µM means T; lower than 20 µM means F.

molecule="CC(C)=CC(=O)OC1C2C(C)=CC(=O)C(O)C2(C)C2C3(O)OCC24C(CC(=O)OC14)C(C)C3O (stereo not drawn)" assigned_class=F
molecule="CCOP(=O)(OCC)C(c1ccccc1)N(C(=O)NC(F)(F)F)c1ccc(C)cc1 (stereo not drawn)" assigned_class=T
molecule="CN(Cc1cnc2nc(N)nc(N)c2n1)c1c(Cl)cc(C(=O)NC(CCC(=O)O)C(=O)O)cc1Cl (stereo not drawn)" assigned_class=T
molecule=COc1ccc(/C=C(\C#N)c2cc(OC)c(OC)c(OC)c2)cc1 assigned_class=T
molecule="COC(=O)C1CCC(=O)NCCCCC(NC(=O)C(N)CC(=O)O)C(=O)N1 (stereo not drawn) (H-Asp-Lys-Glu-OMe; lactam 2-3; configuration not given here)" assigned_class=T
molecule=CCNc1ccc2c(c1)C(=O)N(OS(C)(=O)=O)C2=O assigned_class=T
molecule="C/C(=N/NC(N)=S)C(CN1CCOCC1)C(C1=C(O)c2ccccc2OC1)c1ccccc1 (stereo not drawn)" assigned_class=T
molecule=C=CCCCN(C(=O)c1ccccc1)c1ccc(C(=O)OC)o1 assigned_class=T
molecule="C[C@]12CCC3c4ccc(O)cc4CCC3C1CC[C@@H]2NC(=O)/C=C/c1ccc(O)c(O)c1 (stereo partly drawn)" assigned_class=T
molecule=Fc1ccc(-c2ncn(C3CCNCC3)c2-c2ccnc(Oc3ccc(Cl)cc3)n2)cc1 assigned_class=F
molecule=C=C(CN1CCN(c2ccccn2)CC1)c1ccc(C(=O)Nc2ccccc2N)cc1 assigned_class=T
molecule=CCOc1ccc2cc(-c3nn(CC4CCN(C)CC4)c4ncnc(N)c34)ccc2c1 assigned_class=T
molecule=COc1ccc(-c2cn3ccnc3c(-c3ccc(Cl)cc3)n2)cc1 assigned_class=T
molecule="CC(C)(C)N=C1C(=O)C2(C)CCC1C2(C)C (stereo not drawn)" assigned_class=T
molecule="CN1Cc2ccccc2C2(COc3ccccc3C2=O)C1 (stereo not drawn)" assigned_class=T
molecule=Nc1ccc(C(=O)N/C(=C\c2ccc3c(c2)OCO3)c2nc3ccccc3s2)cc1 assigned_class=T
molecule=Cc1c2oc(=O)c(C#N)cc2c2ccccn12 assigned_class=T
molecule="COc1c2c(c(O)c3c4c(c(C)cc13)C1OC3(C(OC)OC5CC(C)(O)C(OC6CC(C)(O)C(O)C(C)O6)C(C)O5)OC1C(OC)(O4)C31CO1)C(=O)C(O)CC2OC1CC(C)(O)C(OC(C)=O)C(C)O1 (stereo not drawn)" assigned_class=F
molecule=S=C(Nc1ccc(-c2nc3ccccc3s2)cc1)Nc1ccc(-c2nc3ccccc3s2)cc1 assigned_class=T
molecule="c1ccc(C2N=C(c3ccccn3)C(c3ccccn3)=NC2c2ccccc2)cc1 (stereo not drawn)" assigned_class=T
molecule=Oc1c(NCn2nc(CCCCCCCCc3nn(CNc4ccc5ccccc5c4O)c(=S)o3)oc2=S)ccc2ccccc12 assigned_class=T
molecule="OC(Cc1cccc2ccccc12)CN1CCC(c2ccccc2)CC1 (stereo not drawn)" assigned_class=T
molecule=CCNC(=O)COc1ccc(Cl)c(C)c1 assigned_class=T
molecule=CCOC(=O)c1cnc2n(c1=O)[C@H]1CCCC[C@@H]1N2 assigned_class=T
molecule=COc1ccc(CN2c3ccccc3Sc3ccccc32)cc1O assigned_class=T
molecule=COC(=O)c1c(CC(=O)OC(C)C)cc2n(c1=O)Cc1c-2nc2ccccc2c1OC assigned_class=T
molecule=C/C(=N\Nc1nc2cc(F)ccc2s1)c1ccccn1 assigned_class=F
molecule="C[C@]12CC[C@H](OC(=O)Nc3ccccc3)CC1=CC[C@@H]1C2CC[C@]2(C)/C(=N/OC(=O)Nc3ccccc3)CCC12 (stereo partly drawn)" assigned_class=T
molecule=C[C@]12CC[C@H]3[C@@H](CC=C4C[C@@H](O)CC[C@@]43C)[C@@H]1C/C(=C\c1ccc([N+](=O)[O-])cc1)[C@@H]2O assigned_class=T
molecule="O=C(CCC(NC(=O)OCc1ccccc1)C(=O)OCc1ccccc1)Nc1cccc(OCc2ccccc2)c1 (stereo not drawn)" assigned_class=T
molecule=CCOC(=O)/C=C(/C(=O)OCC)n1cc(C)c(=O)n(Cc2cn(CCCCOC(C)=O)nn2)c1=O assigned_class=F

Hey, just so you know, these numbers are from PubChem BioAssay (NCI).
